# Method description: qHTS assay to identify small molecule agonists of the RXR signaling pathway - cell viability counter screen (AID 1159529); also: nearly all actives have a fitted effect of over 50% in size
# Particulars: RXR-alpha-bla HEK293T viability, CellTiter-Glo, 16 h; series mostly up to 76.8 µM
Inconclusive results are not listed. Activity calls are given as the source filed them. Calls follow the shape of the dose curve; as a rule, active = well fitted cell-killing curve with a large enough effect in the repeat runs; inconclusive = weak or mixed curves, or effect the other way; inactive = no such curve, though single readings can be large or run the other way.
The reply should name one outcome from active, inactive

Below, 3 molecules whose answers are already recorded.
# Molecule, Label value
data = [
    ("CCN(CC)Cc1nccn1-c1ccc([N+](=O)[O-])cc1C(=O)c1ccccc1Cl", "inactive"),
    ("O=C1C(Cl)=C(Cl)C(=O)C(Cl)=C1Cl", "active"),
    ("C1=CCC=C1", "inactive"),
]

# input Write down the call the test reported for this molecule. Item: CCOC(=O)Cc1ccccc1
# output inactive

# input Any idea what this test logged for Nc1nc(N)nc(Cl)n1 ?
# output inactive

# input Please share the test call associated with CC(C)=CC1C(C(=O)OC(C#N)c2cccc(Oc3ccccc3)c2)C1(C)C (stereo not given) .
# output inactive

# input Tell me the assay call for CC(O)C(=O)[O][Hg][c]1ccccc1 (stereo not given) please.
# output active

# input Look up the recorded call for CC[C@H](C)[C@H]1O[C@]2(C=C[C@@H]1C)C[C@@H]1C[C@@H](C/C=C(\C)[C@@H](O[C@H]3C[C@H](OC)[C@@H](O[C@H]4C[C@H](OC)[C@@H](NC)[C@H](C)O4)[C@H](C)O3)[C@@H](C)/C=C/C=C3\CO[C@@H]4[C@H](O)C(C)=C[C@@H](C(=O)O1)[C@]34O)O2 in this test.
# output active

# input Per the records of this test, what outcome belongs to CSC(C)(C)/C=N/O ?
# output inactive

# input Outcome logged for CO/N=C(\C(=O)OC)c1ccccc1CO/N=C(\C)c1cccc(C(F)(F)F)c1 in this assay:
# output inactive

# input What was the test verdict on CCOP(=S)(OCC)SC(CCl)N1C(=O)c2ccccc2C1=O (stereo not given) ?
# output inactive

# input Recorded test call requested for [O]=[Cr][O][Cr]=[O]
# output inactive

# input Status in this test for CCC1(CC)C(=O)N=C(O)NC1=O ?
# output inactive

# input How did this test come out for O=[N+]([O-])c1ccccc1-c1ccccc1 ?
# output inactive

# input Record lookup: outcome of this test for Oc1ccc2[nH]cc(CCCCN3CC=C(c4ccccc4)CC3)c2c1 ?
# output inactive

# input Record lookup: outcome of this test for Nc1ccccc1-c1ccccc1 ?
# output active

# input Please share the test call associated with CN(C)CCc1c[nH]c2ccccc12 .
# output inactive

# input Answer briefly: the call reported for O=NN(CCO)CCO in this assay.
# output inactive

# input Please state the recorded outcome for this molecule: CO/N=C(/C1=NOCCO1)c1ccccc1Oc1ncnc(Oc2ccccc2Cl)c1F
# output inactive

# input Hi, do you know how Brc1cccc(-c2ccccc2)c1 came out in this test?
# output inactive

# input What is the recorded call for this molecule in the test? COc1c2c(cc3c1OCO3)CCN(C)C2
# output inactive

# input Outcome? C=CC(=O)[O][Sn]([CH2]CCC)([CH2]CCC)[CH2]CCC
# output active

# input Dear all, I need the recorded test outcome for CCC1COC(Cn2cncn2)(c2ccc(Cl)cc2Cl)O1 (stereo not given) , thank you.
# output inactive

# input Answer briefly: the call reported for O.O.O.O.O.O.O.O=S(=O)([O-])[O-].[Co+2] in this assay.
# output inactive

# input Per the assay record, what outcome was assigned to ClC(Cl)C(Cl)(Cl)Cl ?
# output inactive

# input Please indicate how the test categorized ClCBr .
# output inactive

# input I'd appreciate the recorded outcome for S=C=Nc1ccccc1 from this test.
# output inactive

# input Outcome? CNC(=O)/C=C(\C)OP(=O)(OC)OC
# output inactive

# input Would you mind telling me which call this test gave O=S1OCC2C(CO1)C1(Cl)C(Cl)=C(Cl)C2(Cl)C1(Cl)Cl (stereo not given) ?
# output active

# input Please state the recorded outcome for this molecule: CC(C)=CCN1CC[C@@]2(C)c3cc(O)ccc3C[C@@H]1[C@@H]2C
# output inactive

# input For Oc1ccc([C@H]2CNCc3c2ccc(O)c3O)cc1O , which call appears in the assay record?
# output inactive

====

# Method description: qHTS assay to identify small molecule agonists of the AP-1 signaling pathway - cell viability counter screen (AID 1159525); also: nearly all actives have a fitted effect of over 55% in size
# Particulars: ME-180 (cervical carcinoma) AP-1-bla cells viability, ATP luminescence, 5 h; series mostly up to 76.8 µM
Records with an inconclusive call do not appear. Calls of active or inactive are those of the source. Calls come from the whole dose curve.
Outcome (select one): active, inactive

# Molecule, Label value
data = [
    ("CC(=O)[O-].CC(=O)[O-].O.O.O.[Pb+2]", "inactive"),
    ("C#CCO", "inactive"),
    ("CCCCc1ccccc1", "inactive"),
    ("O=[N+]([O-])c1ccc(Cl)c(Cl)c1Cl", "inactive"),
    ("CCc1cccc(C)c1N(C(=O)CCl)[C@@H](C)COC", "inactive"),
]

# input Please state the recorded outcome for this molecule: Cc1cc2c3c(c1)C(c1ccccc1)=N[C@@H](NC(=O)c1ccncc1)C(=O)N3CC2
# output inactive

# input I'd appreciate the recorded outcome for CCO/N=C(\CC)C1=C(O)CC(c2c(C)cc(C)cc2C)CC1=O (stereo not given) from this test.
# output inactive

====

# Method description: qHTS assay to identify small molecule agonists of the sonic hedgehog signaling (Shh) pathway - cell viability counter screen (AID 1259366); also: nearly all actives have a fitted effect of over 50% in size
# Particulars: NIH/3T3 Gli1-Luc viability, CellTiter-Fluor, 24 h; series mostly up to 92.4 µM
Inconclusive results are not listed. Active and inactive are the calls of the source. The call rests on the fitted dose curve; in most records, active means well fitted cell-killing curve with a large enough effect in the repeat runs; inconclusive means weak or mixed curves, or effect the other way; inactive means flat fitted curve, though single readings scatter.
Pick from class 1 for active, class 0 for inactive when you respond.

Examples with answers:
# Compound, Label value
rows = [
    ("CCn1cc[n+](C)c1 (tested in a mixture with another compound)", "class 0"),
    ("Nc1ccccc1-c1ccccc1", "class 0"),
    ("[O]=[Cr][O][Cr]=[O]", "class 0"),
    ("O=[N+]([O-])c1cccc2cccc([N+](=O)[O-])c12", "class 0"),
    ("CC(C)Br", "class 0"),
]

# input Assay result, entry S=C=Nc1ccccc1 — outcome?
# output class 0

# input Entry CNC(=O)/C=C(\C)OP(=O)(OC)OC : call = ?
# output class 0

# input # fetch the recorded call for C=Cc1cccc(CCl)c1 here
# output class 0

# input Status in this test for CCOP(=O)(Sc1ccccc1)Sc1ccccc1 ?
# output class 0

# input Could you kindly confirm the outcome this assay logged for C=C(C)C(=O)[O][Sn]([CH2]CCC)([CH2]CCC)[CH2]CCC ?
# output class 1

====

# Method description: A CellTox Green Cytotoxicity Assay to monitor cytotoxicity in HEK293 cells - 32 hour (AID 1224881); also: nearly all actives have a fitted effect of over 40% in size
# Particulars: CellTox Green fluorescence; series mostly up to 76.8 µM
Inconclusive results are not listed. Calls of active or inactive are those of the source. Calls follow the shape of the dose curve; as a rule, active = well fitted activation curve with a large enough effect in the repeat runs; inconclusive = weak or mixed curves; inactive = flat fitted curve, though single readings scatter.
Field 'call' accepts active, inactive

# Compound, Label value
records = [
    ("CCC(OC(C)=O)C(CC(C)NC)(c1ccccc1)c1ccccc1 (stereo unspecified)", "active"),
    ("N#Cc1c2ccccc2cc2ccccc12", "inactive"),
    ("O=[N+]([O-])c1cc(C(F)(F)F)c(Cl)c([N+](=O)[O-])c1Nc1ncc(C(F)(F)F)cc1Cl", "active"),
]

Proceed to the following item.
# input For CCC[CH2][Sn]([CH2]CCC)([CH2]CCC)[CH2]CCC , what call appears in the results of this test?
# output active

====

# Method description: A CellTox Green Cytotoxicity Assay to monitor cytotoxicity in HEK293 cells - 0 hour (AID 1224869); also: nearly all actives have a fitted effect of over 50% in size
# Particulars: CellTox Green fluorescence; series mostly up to 76.8 µM
The source made the active and inactive calls. Calls come from the whole dose curve; as a rule, active = well fitted activation curve with a large enough effect in the repeat runs; inconclusive = weak or mixed curves; inactive = flat fitted curve, though single readings scatter.
Lab note: assign the record to one of t = active, f = inactive

# Entry smiles, Label value
measured = [
    ("CSC(C)(C)/C=N/O", "f"),
    ("O=C(NC(=O)c1ccccc1Cl)Nc1ccc(OC(F)(F)F)cc1", "f"),
    ("Cc1ccc(C)c2ccccc12", "f"),
    ("N#CSCc1ccccc1", "f"),
    ("CCCCON=O", "f"),
    ("Nc1nc(N)c(N)c(N)n1", "t"),
    ("CN(C)CCc1c[nH]c2ccccc12", "f"),
]

Next item in the queue.
# input GET /call?item= c1cc[n+]2c(c1)-c1cccc[n+]1CC2 returns the recorded outcome of this test.
# output f

====

# System name: Cytochrome P450 2C19 (Homo sapiens) (UniProt P33261)
# Sequence (P33261 whole entry, looked up): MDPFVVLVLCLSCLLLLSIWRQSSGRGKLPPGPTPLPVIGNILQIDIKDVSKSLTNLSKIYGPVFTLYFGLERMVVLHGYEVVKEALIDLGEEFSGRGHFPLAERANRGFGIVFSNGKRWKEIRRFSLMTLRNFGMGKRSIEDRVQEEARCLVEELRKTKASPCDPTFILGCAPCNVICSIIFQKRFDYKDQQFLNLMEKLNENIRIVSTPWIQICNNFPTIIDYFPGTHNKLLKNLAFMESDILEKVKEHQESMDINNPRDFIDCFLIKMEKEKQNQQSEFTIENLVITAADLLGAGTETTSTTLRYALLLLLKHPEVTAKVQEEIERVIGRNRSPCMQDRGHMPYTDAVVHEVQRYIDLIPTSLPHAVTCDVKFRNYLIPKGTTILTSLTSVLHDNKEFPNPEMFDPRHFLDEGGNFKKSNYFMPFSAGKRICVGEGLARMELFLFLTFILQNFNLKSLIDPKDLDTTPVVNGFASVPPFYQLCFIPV
# Method description: Cytochrome P450 Family 2 Subfamily C Member 19 (CYP2C19) small molecule antagonists: luciferase reporter qHTS assay (AID 1671197); also: nearly all actives have a fitted effect of over 65% in size
# Particulars: P450-Glo CYP2C19 enzyme, luciferin luminescence, 1 h; series mostly up to 115 µM
Records with an inconclusive call do not appear. Activity calls are given as the source filed them. Calls follow the shape of the dose curve; as a rule, active = well fitted inhibition curve with a large enough effect in the repeat runs; inconclusive = weak or mixed curves; inactive = no such curve, though single readings can be large or run the other way.
// one of yes for active, no for inactive, no free text

# Compound, Label value
measured = [
    ("Nc1ccc(N=Nc2ccccc2)cc1", "yes"),
    ("CCOP(=S)(OCC)SC(CCl)N1C(=O)c2ccccc2C1=O (centres undefined)", "yes"),
    ("Cc1nn(-c2cc(NS(C)(=O)=O)c(Cl)cc2Cl)c(=O)n1C(F)F", "no"),
    ("O=C(NC(=O)c1ccccc1Cl)Nc1ccc(OC(F)(F)F)cc1", "no"),
    ("Cc1cc(C2CC2)nc(Nc2ccccc2)n1", "yes"),
    ("COP(=S)(NC(C)C)Oc1ccc(C)cc1[N+](=O)[O-] (centres undefined)", "yes"),
    ("C=C(C)C(=O)[O][Sn]([CH2]CCC)([CH2]CCC)[CH2]CCC", "yes"),
    ("CCCN", "no"),
]

# input For this compound, state the assay outcome: COC(=O)c1cc(Oc2ccc(Cl)cc2Cl)ccc1[N+](=O)[O-]
# output yes

# input In this assay, the call recorded for N#CSCc1ccccc1 was what?
# output yes

# input Please state the recorded outcome for this compound: O=C(N[C@H]1N=C(c2ccccc2F)c2cccc3c2N(CC3)C1=O)c1cc2ccccc2[nH]1
# output no

# input # fetch the recorded call for CC(C)(C)c1ccc(OP(=O)(Oc2ccccc2)Oc2ccccc2)cc1 here
# output yes

# input Fill in: this test's call for C[N+]1(C)[C@@H]2CC[C@H]1CC(OC(=O)C(CO)c1ccccc1)C2 (some centres undefined) is ___
# output no

# input Short answer needed: outcome of this test for CCC(C)Nc1c([N+](=O)[O-])cc(C(C)(C)C)cc1[N+](=O)[O-] (centres undefined) ?
# output yes

# input Record request — test call for O=C(O)CCCCCCNC1c2ccccc2CCc2ccccc21
# output no

# input Any idea what this test logged for CNC(=O)/C=C(\C)OP(=O)(OC)OC ?
# output no

# input Can you look up the reported call for COc1nc(C)nc(NC(=O)NS(=O)(=O)c2ccccc2Cl)n1 for me?
# output no

# input // outcome(item) with item = C#CCC1=C(C)C(OC(=O)C2C(C=C(C)C)C2(C)C)CC1=O (centres undefined)
# output yes

# input Dear colleague, could you share the recorded outcome for CC1(C)[C@H](/C=C2\CCSC2=O)[C@@H]1C(=O)OCc1coc(Cc2ccccc2)c1 when you have a moment?
# output yes

# input What was the test verdict on CC1=C2C[C@H]3[C@@H](CC=C4C[C@@H](O)CC[C@@]43C)[C@@H]2CC[C@]12O[C@@H]1C[C@H](C)CN[C@H]1[C@H]2C ?
# output no

# input Each compound tested received a call. Report the one for CN=C=O .
# output no

# input Hi, do you know how CCNc1nc(NC(C)C(C)C)nc(SC)n1 (centres undefined) came out in this test?
# output yes

# input For CC(Cc1ccc(O)cc1)NCC(O)c1cc(O)cc(O)c1 (centres undefined) , what call appears in the results of this test?
# output no

# input Outcome logged for CC(=O)[O][Sn]([c]1ccccc1)([c]1ccccc1)[c]1ccccc1 in this assay:
# output yes
